test system: mPTP; experiment: mPTP activity (Ca2+ retention) assay in isolated rat liver mitochondria; assay type: biochemical; details: examples tested by different contract research organisations, believed comparable
quantityKind: mPTP Rat liver pIC50
Answer field: number only, no words.

Examples with their reported mPTP Rat liver pIC50 follow.
{"compound": "Cc1cc(F)ccc1CC1(CNC(=O)c2nn(C)c(=O)[nH]2)CCC1", "target": "mPTP", "quantityKind": "mPTP Rat liver pIC50", "observedValue": 5.86}
{"compound": "Cn1nc(C(=O)NCC2(Cc3ccc(Cl)cc3F)CCC2)[nH]c1=O", "target": "mPTP", "quantityKind": "mPTP Rat liver pIC50", "observedValue": 5.61}

As a next step, examine the compound that follows.
Input: Tell me the measured mPTP Rat liver pIC50 of CC(CNC(=O)c1ncc(Cl)c(=O)[nH]1)(Cc1ccc(F)cc1)C1CC1 (single isomer, unassigned) [Example 264] , please.
Output: 6.09

----------
system: mPTP; assay: mPTP activity (Ca2+ retention) assay in isolated rat liver mitochondria; format: biochemical; conditions: examples tested by different contract research organisations, believed comparable
Rule: 1 (yes) for mPTP Rat liver pIC50 not less than 6, 0 (no) for anything less.

Field: example entries. Status: answers known.
{"compound": "Cc1ccccc1CC1(CNC(=O)c2cncc(=O)[nH]2)CCC1", "qualitativeLabel": "0 (no)"}
{"compound": "Cn1nc(C(=O)NCC2(Cc3ccccc3Br)CCC2)[nH]c1=O", "qualitativeLabel": "0 (no)"}
{"compound": "COc1cccc(CC2(CNC(=O)c3nn(C)c(=O)[nH]3)CCC2)c1", "qualitativeLabel": "0 (no)"}
{"compound": "O=C(NCC1(Cc2ccc(F)cc2F)CCCC1)c1cncc(=O)[nH]1", "qualitativeLabel": "1 (yes)"}

Input: Check the entry CC(NC(=O)c1nn(C)c(=O)[nH]1)C1(Cc2ccccc2)CCC1 (centres unmarked) [Example 23] : does mPTP Rat liver pIC50 equal or exceed 6?
Output: 1 (yes)

Input: Check the entry CC[C@@H](Cc1ccc(F)cc1F)C(C)NC(=O)c1nn(C)c(=O)[nH]1 (single isomer, unassigned) [Example 223] : does mPTP Rat liver pIC50 equal or exceed 6?
Output: 1 (yes)

----------
system: mPTP; assay: mPTP activity (Ca2+ retention) assay in isolated rat liver mitochondria; assay type: biochemical; conditions: examples tested by different contract research organisations, believed comparable
quantityKind: mPTP Rat liver pIC50
Answer field: number only, no words.

Examples with their reported mPTP Rat liver pIC50 follow.
{"compound": "CCC(CC)(CNC(=O)c1nn(C)c(=O)[nH]1)Cc1ccc(F)cc1F", "mPTP Rat liver pIC50": 6.55}
{"compound": "O=C(NCC1(Cc2ccc(F)cc2F)CCOCC1)c1cc(=O)[nH]o1", "mPTP Rat liver pIC50": 6.14}
{"compound": "CC(CNC(=O)c1nccc(=O)[nH]1)(Cc1ccc(F)cc1F)C1CC1 (single isomer, unassigned) [Example 243]", "mPTP Rat liver pIC50": 6.91}
{"compound": "Cn1nc(C(=O)NC[C@@H](Cc2ccc(F)cc2F)C2CC2)[nH]c1=O", "mPTP Rat liver pIC50": 5.66}
{"compound": "O=C(NCC1(Cc2cc(F)ccc2F)CCC1)c1nccc(=O)[nH]1", "mPTP Rat liver pIC50": 6.85}

As a next step, examine the compound that follows.
Input: Tell me the measured mPTP Rat liver pIC50 of `Cn1nc(C(=O)NCC2(Cc3cccc(C#N)c3)CCC2)[nH]c1=O` , please.
Output: 5.99

----------
test system: mPTP; assay: mPTP activity (Ca2+ retention) assay in isolated rat liver mitochondria; type: biochemical; details: examples tested by different contract research organisations, believed comparable
quantityKind: mPTP Rat liver pIC50
Answer field: number only, no words.

{"molecule": "Cn1nc(C(=O)NCC2(Cc3cc(F)c(F)cc3F)CCC2)[nH]c1=O [Example 157]", "observedValue": 7.03}

Input: Tell me the measured mPTP Rat liver pIC50 of O=C(NCC1(Cc2ccccn2)CCC1)c1cncc(=O)[nH]1 [Example 62] , please.
Output: 4.85

Input: Tell me the measured mPTP Rat liver pIC50 of Cn1nc(C(=O)NC[C@@H](Cc2ccc(F)cc2Cl)C2CC2)[nH]c1=O [Example 242] , please.
Output: 4.95

Input: Tell me the measured mPTP Rat liver pIC50 of O=C(NC[C@H](Cc1cc(F)ccc1F)C1CC1)c1noc(=O)[nH]1 [Example 207] , please.
Output: 6.12

Input: Tell me the measured mPTP Rat liver pIC50 of Cn1nc(C(=O)NCC2(Cc3cccc(Br)c3)CCC2)[nH]c1=O [Example 99] , please.
Output: 5.89

Input: Tell me the measured mPTP Rat liver pIC50 of Cn1nc(C(=O)NCC(C)(Cc2c(F)cc(F)cc2F)C2CC2)[nH]c1=O (single isomer, unassigned) [Example 228] , please.
Output: 6.16

----------
test system: mPTP; test: mPTP activity (Ca2+ retention) assay in isolated rat liver mitochondria; format: biochemical; conditions: examples tested by different contract research organisations, believed comparable
Below: a set of entries, each annotated with reported mPTP Rat liver pIC50.
Answer field: number only, no words.

Examples with their reported mPTP Rat liver pIC50 follow.
{"molecule": "C[C@@](CNC(=O)c1ncc(Cl)c(=O)[nH]1)(Cc1ccc(F)cc1F)C1CC1", "target": "mPTP", "mPTP Rat liver pIC50": 6.46}
{"molecule": "Cn1nc(C(=O)NCC(Cc2cccc(F)c2)C2CC2)[nH]c1=O (centres unmarked)", "target": "mPTP", "mPTP Rat liver pIC50": 6.59}
{"molecule": "O=C(NCC1(Cc2ccc(F)cc2F)CC12CC2)c1noc(=O)[nH]1 (single isomer, unassigned) [Example 233]", "target": "mPTP", "mPTP Rat liver pIC50": 5.77}
{"molecule": "O=C(NCC1(Cc2cc(F)c(F)cc2F)CCC1)c1cncc(=O)[nH]1", "target": "mPTP", "mPTP Rat liver pIC50": 6.58}

Input: Tell me the measured mPTP Rat liver pIC50 of `O=C(NCC1(Cc2ccccc2)CCC1)c1nc(=O)[nH][nH]1` , please.
Output: 6.32

Input: Tell me the measured mPTP Rat liver pIC50 of CC[C@@H](CNC(=O)c1nn(C)c(=O)[nH]1)Cc1ccccc1 (single isomer, unassigned) [Example 54a] , please.
Output: 5.04

Input: Tell me the measured mPTP Rat liver pIC50 of `CC(C)(CNC(=O)c1cncc(O)n1)Cc1ccccc1` , please.
Output: 5.70

Input: Tell me the measured mPTP Rat liver pIC50 of CC[C@H](CNC(=O)c1nccc(=O)[nH]1)Cc1ccc(F)cc1F [Example 163] , please.
Output: 5.38

Input: Tell me the measured mPTP Rat liver pIC50 of `CC[C@H](CNC(=O)c1noc(=O)[nH]1)Cc1ccc(F)cc1F` , please.
Output: 5.96

Input: Tell me the measured mPTP Rat liver pIC50 of `Cc1ccc(F)c(CC2(CNC(=O)c3nn(C)c(=O)[nH]3)CCC2)c1` , please.
Output: 6.04

Input: Tell me the measured mPTP Rat liver pIC50 of O=C(NC[C@H](Cc1ccc(F)c(F)c1)C1CC1)c1cncc(=O)[nH]1 [Example 143] , please.
Output: 6.47

Input: Tell me the measured mPTP Rat liver pIC50 of CC(C)[C@H](CNC(=O)c1nn(C)c(=O)[nH]1)Cc1ccccc1 (single isomer, unassigned) [Example 46B] , please.
Output: 6.97

Input: Tell me the measured mPTP Rat liver pIC50 of CC(c1ccc(F)cc1F)C1(CNC(=O)c2nn(C)c(=O)[nH]2)CCC1 (centres unmarked) , please.
Output: 6.41

Input: Tell me the measured mPTP Rat liver pIC50 of `Cc1cc(F)ccc1C[C@@H](CNC(=O)c1nn(C)c(=O)[nH]1)C1CC1` , please.
Output: 7.01

Input: Tell me the measured mPTP Rat liver pIC50 of `O=C(NCC1(Cc2ccccc2)CC(F)(F)C1)c1cncc(=O)[nH]1` , please.
Output: 4.56

----------
tested on: mPTP; assay: mPTP activity (Ca2+ retention) assay in isolated rat liver mitochondria; format: biochemical; details: examples tested by different contract research organisations, believed comparable
Below: a set of entries, each annotated with reported mPTP Rat liver pIC50.
Answer field: number only, no words.

Examples with their reported mPTP Rat liver pIC50 follow.
{"compound": "O=C(NCC1(Cc2cc(F)cc(F)c2)CCC1)c1ccc(=O)[nH]n1 [Example 176]", "target": "mPTP", "observedValue": 4.8}
{"compound": "O=C(NCC1(Cc2ccc(F)cc2F)CCOCC1)c1nccc(=O)[nH]1 [Example 185]", "target": "mPTP", "observedValue": 6.34}
{"compound": "CC(CNC(=O)c1nccc(=O)[nH]1)(Cc1ccc(F)cc1)C1CC1 (single isomer, unassigned) [Example 252]", "target": "mPTP", "observedValue": 6.82}
{"compound": "CCC(NC(=O)c1nn(C)c(=O)[nH]1)C(C)(C)Cc1ccccc1 (stereo not drawn) [Example 34]", "target": "mPTP", "observedValue": 5.82}
{"compound": "Cn1nc(C(=O)NC[C@H](Cc2c(F)cccc2F)C2CC2)[nH]c1=O [Example 212]", "target": "mPTP", "observedValue": 6.18}

Input: Tell me the measured mPTP Rat liver pIC50 of CCCC(CNC(=O)c1nn(C)c(=O)[nH]1)Cc1ccccc1 (stereo not drawn) [Example 55] , please.
Output: 5.44

Input: Tell me the measured mPTP Rat liver pIC50 of CC(CNC(=O)c1noc(=O)[nH]1)(Cc1ccc(F)cc1F)C1CC1 (single isomer, unassigned) [Example 274] , please.
Output: 6.85

Input: Tell me the measured mPTP Rat liver pIC50 of CC(c1ccccc1)C1(CNC(=O)c2nn(C)c(=O)[nH]2)CCC1 (single isomer, unassigned) [Example 26] , please.
Output: 6.87

Input: Tell me the measured mPTP Rat liver pIC50 of Cn1nc(C(=O)NCC(CO)Cc2ccccc2)[nH]c1=O (stereo not drawn) [Example 70] , please.
Output: 4.85

Input: Tell me the measured mPTP Rat liver pIC50 of Cn1nc(C(=O)NCC(C)(C)Cc2ccccc2Br)[nH]c1=O [Example 36] , please.
Output: 5.28

Input: Tell me the measured mPTP Rat liver pIC50 of Cn1nc(C(=O)NCC(C)(C)Cc2ccccc2)[nH]c1=O [Example 31] , please.
Output: 6.48

Input: Tell me the measured mPTP Rat liver pIC50 of Cc1c(O)cncc1C(=O)NCC1(Cc2ccccc2)CCC1 [Example 4] , please.
Output: 5.77
